Reference for the values: ChEMBL document CHEMBL1961873

Measured inhibition by item
target: Sphingosine kinase 1 (Homo sapiens); settings: at 1 µM;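 further: mean SPHK1 inhibition value reported from the GSK PKIS kinase panel screen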
Express your answer in %, writing the number without its unit.

INSERT INTO assay_data (item_smiles, value_reported) VALUES
  ('COc1cc(Nc2ncc3c(C)nc(-c4cccc(C(F)(F)F)c4)n3n2)cc(OC)c1OC', -1.99),
  ('COc1cc2ncn(-c3cc(OCCc4ccccc4)c(C(N)=O)s3)c2cc1OC', -2.62),
  ('O=C(Nc1ccc(Oc2ccc3[nH]c(NC(=O)c4ccccc4)nc3c2)cc1)Nc1cc(C(F)(F)F)ccc1F', 3.13),
  ('O=C(Nc1n[nH]c2nc(-c3ccc(O)cc3)c(Br)cc12)C1CC1', -0.49),
  ('COc1cc(Nc2ncc(-c3ccccc3)o2)cc(OC)c1OC', 0.49),
  ('CS(=O)(=O)CCNCc1cc(-c2cc3c(Nc4ccc(OCc5cccc(F)c5)c(Cl)c4)ncnc3s2)cs1', 3.45),
  ('COc1ccc2cc(-c3c(-c4ccncc4)nc(-c4ccc(S(C)(=O)=O)cc4C)n3C)ccc2c1', -0.37),
  ('COc1cc2ncn(-c3cc(OCc4cccs4)c(C(N)=O)s3)c2cc1OC', -0.69);

Data request: Answer with the recorded inhibition of C[C@@H](Oc1cc(-n2cnc3ccc(OC4CCN(C)CC4)cc32)sc1C(N)=O)c1ccccc1Cl only.
Data returned: -0.63

Data request: Answer with the recorded inhibition of COc1cc(C)c(N(C)C(=O)CN(C)C)cc1Nc1nc(Nc2cccc(F)c2C(N)=O)c2cc[nH]c2n1 only.
Data returned: -0.02

Data request: Answer with the recorded inhibition of NC(=O)c1cc(-c2ccncc2)cc(-c2ccccc2)c1N only.
Data returned: 1.79
